measured-target: pKSI (Δ5-3-ketosteroid isomerase from Pseudomonas putida) (Pseudomonas putida, UniProt P07445, D40N)
experimental-protocol: fluorescence emission, linear combination of bound and free spectra
assay-endpoint: Kd (µM)
The response must be a number in µM with no trailing unit.

# example entries with known answers
{"molecule": "COc1ccc2cc(O)ccc2c1", "Kd (µM)": 10}
{"molecule": "Oc1ccc2cc(Br)ccc2c1", "Kd (µM)": 4}
{"molecule": "Oc1ccc2cc(O)ccc2c1 [2,6-dihydroxynaphthalene]", "Kd (µM)": 20}

Let us examine a further case.
Requested read-out: Kd. Entry: N#Cc1ccc2cc(O)ccc2c1
2
